Would you mind telling me the reported protein stability index of each entry?
B1: FEM1B (parent)
chain: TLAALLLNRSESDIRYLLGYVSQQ

# Variants of: B1
# ASSAY_PROTOCOL: protein stability index of a GFP-peptide fusion (GPS, HEK-293T) (PSI 1-6); higher = more stable;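 also: lentivirally expressed fusions sorted by FACS into six bins by GFP to DsRed ratio, PSI derived from sequencing read proportions per bin multiplied by bin number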
# CONDITIONS_USED: c terminus: a fixed tail appended

1) R15E = 2.72

Okay, here is my list. What is protein stability index for each of these?
1. Q24T
2. G19W
3. R9N
4. L7A

a:
1. 3.19
2. 1.26
3. 2.57
4. 2.03

Report protein stability index for every entry below.
1. S22V
2. V21C
3. V21R

a:
1. 2.25
2. 3.21
3. 1.3

The measurements presented in this section are drawn from the supplement of paper PMC10567573.
